Overview of reported koff across a group of binders:
# Target: T1, MUC1-SEA-His protein (UniProt P15941 1039-1148, limits assumed)
# T1 construct: domain: SEA; Recombinant antigen used for ELISA coating and as Biacore analyte; also called MUC-SEA-His; antigen protein; not shown: His tag
# T1 sequence (looked up): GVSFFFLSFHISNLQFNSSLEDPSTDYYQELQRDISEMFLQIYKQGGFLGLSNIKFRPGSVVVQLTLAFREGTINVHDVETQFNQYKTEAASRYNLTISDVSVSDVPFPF
# Method: SPR Biacore T200, antibody captured, antigen as analyte

# Binder, koff / s⁻¹
rows = [
    ("VH1 + VL3 (antibody, V domains shown, Humanized IgG expressed in HEK293; also called humanized antibody VH1+VL3) VH: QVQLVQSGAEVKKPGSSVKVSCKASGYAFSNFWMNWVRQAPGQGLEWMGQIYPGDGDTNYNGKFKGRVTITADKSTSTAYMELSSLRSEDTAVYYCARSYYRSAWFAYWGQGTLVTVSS VL: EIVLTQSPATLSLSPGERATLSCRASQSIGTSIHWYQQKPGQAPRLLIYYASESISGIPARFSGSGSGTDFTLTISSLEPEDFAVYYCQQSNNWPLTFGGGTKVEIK", 0.0225),
    ("VH1 + VL2 (antibody, V domains shown, Humanized IgG expressed in HEK293; also called humanized antibody VH1+VL2) VH: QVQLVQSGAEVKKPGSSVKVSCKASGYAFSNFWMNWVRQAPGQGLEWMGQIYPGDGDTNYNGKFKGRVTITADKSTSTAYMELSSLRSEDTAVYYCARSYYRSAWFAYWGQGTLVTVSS VL: EIVMTQSPATLSVSPGERATLSCRASQSIGTSIHWYQQKPGQAPRLLIYYASESISGIPARFSGSGSGTEFTLTISSLQSEDFAVYYCQQSNNWPLTFGGGTKVEIK", 0.0294),
    ("VH1 + VL5 (antibody, V domains shown, Humanized IgG expressed in HEK293; also called humanized antibody VH1+VL5) VH: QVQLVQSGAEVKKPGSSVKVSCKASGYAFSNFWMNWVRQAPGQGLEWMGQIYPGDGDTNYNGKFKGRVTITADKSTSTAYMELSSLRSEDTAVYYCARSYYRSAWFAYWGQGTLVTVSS VL: DIVMTQSPSLLSASTGDRVTISCRASQSIGTSIHWYQQKPGKAPELLIYYASESISGVPSRFSGSGSGTDFTLTISCLQSEDFATYYCQQSNNWPLTFGQGTKVEIK", 0.0302),
]
